Test: Solubility was determined in 5% dextrose, pH 4.5
Type: physicochemical
Non-standard residues stand in square brackets, D forms with d. Residues, ends and D or L forms follow the SMILES beside them. *: point of attachment. dPhe(4-Cl) = N[C@H](Cc1ccc(Cl)cc1)C(=O)O; d2Nal = N[C@H](Cc1ccc2ccccc2c1)C(=O)O; Lys(iPr) = CC(C)NCCCC[C@H](N)C(=O)O; d3Pal = N[C@H](Cc1cccnc1)C(=O)O; Nicotinoyl = O=C(c1cccnc1)*
MEASUREMENT NAME: solubility (µg/mL)
Write the answer as a number in µg/mL, unit excluded.

| MOLECULE | MEASURED VALUE |
| --- | --- |
| CC(=O)N[C@H](Cc1ccc2ccccc2c1)C(=O)N[C@H](Cc1ccc(Cl)cc1)C(=O)N[C@H](Cc1cccnc1)C(=O)N[C@@H](CO)C(=O)N(C)[C@@H](Cc1ccc(O)cc1)C(=O)N[C@H](CCCNC(N)=O)C(=O)N[C@@H](CC(C)C)C(=O)N[C@@H](CCCN=C(N)N)C(=O)N1CCC[C@H]1C(=O)N[C@H](C)C(N)=O | 12000 |

Now for a further molecule.
IN: For CC(=O)N[C@H](Cc1ccc2ccccc2c1)C(=O)N[C@H](Cc1ccc(Cl)cc1)C(=O)N[C@H](Cc1cccnc1)C(=O)N[C@@H](CO)C(=O)N[C@@H](CCCCNC(=O)c1cccnc1)C(=O)N[C@H](CCCCNC(=O)c1cccnc1)C(=O)N[C@@H](CC(C)C)C(=O)N[C@@H](CCCCNC(C)C)C(=O)N1CCC[C@H]1C(=O)N[C@H](C)C(N)=O (Ac-[d2Nal][dPhe(4-Cl)][d3Pal]SK(Nicotinoyl)[dK](Nicotinoyl)L[Lys(iPr)]P[dA]-NH2) , write its solubility.
OUT: 1100

====

Target: Gonadotropin-releasing hormone receptor (Rattus norvegicus, UniProt P30969)
Sequence (P30969 whole entry): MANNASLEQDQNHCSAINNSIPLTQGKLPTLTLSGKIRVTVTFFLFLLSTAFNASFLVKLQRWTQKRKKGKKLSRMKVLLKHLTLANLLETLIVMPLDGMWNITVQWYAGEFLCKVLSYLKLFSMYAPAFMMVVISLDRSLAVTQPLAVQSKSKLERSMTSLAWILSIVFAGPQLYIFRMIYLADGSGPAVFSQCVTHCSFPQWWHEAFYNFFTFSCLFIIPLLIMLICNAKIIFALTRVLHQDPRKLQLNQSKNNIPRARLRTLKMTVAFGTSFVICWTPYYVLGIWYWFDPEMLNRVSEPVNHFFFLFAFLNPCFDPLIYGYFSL
Non-standard residues stand in square brackets, D forms with d. Residues, ends and D or L forms follow the SMILES beside them. *: point of attachment. dPhe(4-Cl) = N[C@H](Cc1ccc(Cl)cc1)C(=O)O; d2Nal = N[C@H](Cc1ccc2ccccc2c1)C(=O)O; Lys(iPr) = CC(C)NCCCC[C@H](N)C(=O)O; NMeY = CN[C@@H](Cc1ccc(O)cc1)C(=O)O; dBta = N[C@H](Cc1csc2ccccc12)C(=O)O; d3Pal = N[C@H](Cc1cccnc1)C(=O)O; Nicotinoyl = O=C(c1cccnc1)*
MEASUREMENT NAME: pKi
Interpret pKi as the negative base-10 log of the concentration measured in mol/L.

Here are 2 compounds together with their reported answers.
| COMPOUND | EXPERIMENTAL TARGET | pKi |
| --- | --- | --- |
| CC(=O)N[C@H](Cc1ccc(Cl)cc1)C(=O)N[C@H](Cc1ccc(Cl)cc1)C(=O)N[C@H](Cc1csc2ccccc12)C(=O)N[C@@H](CO)C(=O)N(C)[C@@H](Cc1ccc(O)cc1)C(=O)N[C@H](CCCCN)C(=O)N[C@@H](CC(C)C)C(=O)N[C@@H](CCCN=C(N)N)C(=O)N1CCC[C@H]1C(=O)N[C@H](C)C(N)=O (Ac-[dPhe(4-Cl)][dPhe(4-Cl)][dBta]S[NMeY][dK]LRP[dA]-NH2) | Gonadotropin-releasing hormone receptor (Rattus norvegicus, UniProt P30969) | 10.63 |
| CC(=O)N[C@H](Cc1ccc2ccccc2c1)C(=O)N[C@H](Cc1ccc(Cl)cc1)C(=O)N[C@H](Cc1cccnc1)C(=O)N[C@@H](CO)C(=O)N[C@@H](CCCCNC(=O)c1cccnc1)C(=O)N[C@H](CCCCNC(=O)c1cccnc1)C(=O)N[C@@H](CC(C)C)C(=O)N[C@@H](CCCCNC(C)C)C(=O)N1CCC[C@H]1C(=O)N[C@H](C)C(N)=O (Ac-[d2Nal][dPhe(4-Cl)][d3Pal]SK(Nicotinoyl)[dK](Nicotinoyl)L[Lys(iPr)]P[dA]-NH2) | Gonadotropin-releasing hormone receptor (Rattus norvegicus, UniProt P30969) | 10.21 |

Now, please, on to the next compound.
IN: Provide pKi, recorded with Gonadotropin-releasing hormone receptor (Rattus norvegicus, UniProt P30969), of CC(=O)N[C@H](Cc1ccc(Cl)cc1)C(=O)N[C@H](Cc1ccc(Cl)cc1)C(=O)N[C@H](Cc1csc2ccccc12)C(=O)N[C@@H](CO)C(=O)N[C@@H](Cc1ccc(O)cc1)C(=O)N[C@H](CCCCN)C(=O)N[C@@H](CC(C)C)C(=O)N[C@@H](CCCN=C(N)N)C(=O)N1CCC[C@H]1C(=O)N[C@H](C)C(N)=O
OUT: 10.48
